Record form. Attribute: Plant response rating, Chickweed. Fill in for each entry.
Tested on: chickweed
Experiment: Test C postemergence
Format: in vivo, Stellaria media
Details: 125 g ai/ha, postemergence; visual rating, scale 0 to 100 (0 no effect, 100 complete control)
Description: […]

Query :: Fill blank: measured Plant response rating, Chickweed of the compound Clc1cnc(Oc2ccccc2-n2cc(Br)nn2)nc1 is ____.
Result :: 60

Query :: Value lookup for Plant response rating, Chickweed; key = Clc1cnc(Oc2cccc(Cl)c2-n2cc(Cl)cn2)nc1
Result :: 80

Query :: // query Plant response rating, Chickweed value for entry FC(F)c1cccc(Oc2ncc(Br)cn2)c1-n1cc(C(F)(F)F)cn1
Result :: 95

Query :: # lookup: Plant response rating, Chickweed of FC(F)(F)c1cnn(-c2c(Br)cccc2Oc2ncc(Cl)cn2)c1
Result :: 98

* * *

Test system: kochia
Experiment: Test C postemergence
Format: in vivo, Kochia scoparia
Conditions: Postemergence, 62 g ai/ha; scale 0 to 100 (0 no effect, 100 complete control)
Text: […]
Kindly state Plant response rating, Kochia for each of the entries shown.
Keep the answer to the number alone.

Query :: Look up Plant response rating, Kochia for this compound: N#Cc1cccc(Oc2ncc(Br)cn2)c1-n1cc(Br)cn1
Result :: 90

Query :: Given the entry Fc1cnc(Oc2cccc(C(F)F)c2-n2cc(Cl)cn2)nc1 , report its measured Plant response rating, Kochia.
Result :: 90

Query :: Look at this compound and give its reported Plant response rating, Kochia. FC(F)Oc1cnn(-c2ccccc2Oc2ncc(Cl)cn2)c1
Result :: 90

* * *

System: rice
Test: Test B flooded paddy test
Type: in vivo, Oryza sativa
Conditions: Flood, 250 g ai/ha; 0 to 100 scale where 0 is no effect and 100 is complete control
readout_name: Plant response rating, Rice
Returns: the value as a bare number; no unit string appended.

Query :: Endpoint output: Plant response rating, Rice of FC(F)c1cccc(Oc2ncc(Cl)cn2)c1-n1cc(Cl)cn1 [Compound 209] . Value?
Result :: 0

Query :: Dear colleague, I am looking for the recorded Plant response rating, Rice of the following compound: CC(C)c1cnc(Oc2cccc(C#N)c2-n2cc(Br)cn2)nc1 [Compound 130]
Result :: 0

Query :: Returns the measured Plant response rating, Rice for the input compound. Input: FC(F)c1cccc(Oc2ncc(Br)cn2)c1-n1cc(Cl)cn1 [Compound 210]
Result :: 15

Query :: What value of measured Plant response rating, Rice is listed for Cc1cnc(Oc2cccc(C#N)c2-n2cc(C#N)cn2)nc1 [Compound 90] ?
Result :: 0

Query :: Please report the recorded Plant response rating, Rice for Clc1cnc(Oc2ccccc2-n2cnc(Br)c2)nc1 [Compound 34] .
Result :: 30

Query :: Name the reported Plant response rating, Rice value associated with the compound Clc1cnc(Oc2ccccc2-n2cc(-c3ccccc3)cn2)nc1 [Compound 22]
Result :: 40

Query :: Look up Plant response rating, Rice for this compound: Cc1cnc(Oc2cccc(C#N)c2-n2cc(C(F)(F)F)cn2)nc1 [Compound 180]
Result :: 40

Query :: Could you tell me which Plant response rating, Rice is on file for COC(=O)c1cccc(Oc2ncc(Cl)cn2)c1-n1cc(Br)cn1 [Compound 211] ?
Result :: 0

Query :: I am curious: what Plant response rating, Rice value has been reported for Clc1cnc(Oc2cc(Cl)ccc2-n2cc(Br)cn2)nc1 [Compound 51] ?
Result :: 0

Query :: What does the data say about its Plant response rating, Rice? Entry: C=Cc1cnn(-c2ccccc2Oc2ncc(Cl)cn2)c1 [Compound 31]
Result :: 25

Query :: Field request: Plant response rating, Rice | item: Fc1cnc(Oc2cccc(Br)c2-n2cc(OCC(F)(F)F)cn2)nc1 [Compound 157]
Result :: 35

Query :: Suppose we examine the compound Fc1cnc(Oc2cccc(C(F)F)c2-n2cc(Cl)cn2)nc1 [Compound 94] ; what Plant response rating, Rice value has been reported?
Result :: 0

Query :: Query: Plant response rating, Rice; subject: Fc1cnc(Oc2ccccc2-n2cc(SC(F)(F)F)cn2)nc1 [Compound 247]
Result :: 0

Query :: What value of Plant response rating, Rice has been reported for the following compound? Clc1cnc(Oc2ccccc2-n2ccnc2)nc1 [Compound 100]
Result :: 0

Query :: Would you kindly share the measured Plant response rating, Rice for Clc1ccc(-n2cccn2)c(Oc2ncc(Br)cn2)c1 [Compound 50] ?
Result :: 0

Query :: # Plant response rating, Rice lookup, item CC(=O)c1cn(-c2c(Br)cccc2Oc2ncc(Cl)cn2)nn1 [Compound 280]
Result :: 10

Query :: Quick check: Plant response rating, Rice of FCc1cccc(Oc2ncc(Br)cn2)c1-n1cc(I)cn1 [Compound 244] ?
Result :: 0

Query :: So what's the measured Plant response rating, Rice for this one? N#Cc1cnn(-c2c(Br)cccc2Oc2ncc(Cl)cn2)c1 [Compound 140]
Result :: 0

Query :: Dear colleague, I am looking for the recorded Plant response rating, Rice of the following compound: Cc1cnc(Oc2cccc(C#N)c2-n2cc(Br)cn2)nc1 [Compound 76]
Result :: 0

Query :: Plant response rating, Rice for CC(F)c1cccc(Oc2ncc(Cl)cn2)c1-n1cc(Br)cn1 (stereo not drawn) [Compound 146] ?
Result :: 0

Query :: Which Plant response rating, Rice value belongs to COc1cnc(Oc2ccccc2-n2cc(Br)cn2)nc1 [Compound 234] ?
Result :: 20

Query :: Please give the measured Plant response rating, Rice for this compound: CC1(C)OB(c2cnn(-c3c(C#N)cccc3Oc3ncc(Cl)cn3)c2)OC1(C)C [Compound 285]
Result :: 0

Query :: Could you tell me which Plant response rating, Rice is on file for CCOC(=O)c1cnn(-c2c(C#N)cccc2Oc2ncc(Br)cn2)c1 [Compound 294] ?
Result :: 0

Query :: For the compound shown here, N#Cc1cccc(Oc2ncc(Cl)cn2)c1-n1cc(SC(F)(F)F)cn1 [Compound 143] , give the reported Plant response rating, Rice.
Result :: 0

Query :: Which Plant response rating, Rice is listed for FCCc1cn(-c2c(F)cccc2Oc2ncc(Cl)cn2)nn1 [Compound 108] ?
Result :: 35

Query :: Given the compound FCc1cccc(Oc2ncc(F)cn2)c1-n1cc(Cl)cn1 [Compound 249] , what is its reported Plant response rating, Rice?
Result :: 0

Query :: Data request, read-out Plant response rating, Rice, for N#Cc1cc(F)cc(Oc2ncc(Cl)cn2)c1-n1cc(Br)cn1 [Compound 238]
Result :: 0
